- Protocol Text: Plasma pharmacokinetics after a single oral dose of rucaparib 600 mg in patients with advanced solid tumors, by hepatic function group
- Condition Info: human, plasma, oral, 600 mg, AUC0-inf, Geometric LS means, ANOVA; NCI-ODWG normal hepatic function (n = 8)
Test Readout: AUC(0-inf) (ng·h/mL)
Respond with the bare value in ng·h/mL.

I am curious: what AUC(0-inf) value has been reported for CNCc1ccc(-c2[nH]c3cc(F)cc4c3c2CCNC4=O)cc1 [rucaparib] ? 13700

* * *

- Protocol Text: Plasma pharmacokinetics after a single oral dose of rucaparib 600 mg in patients with advanced solid tumors, by hepatic function group
- Condition Info: human, plasma, po, 600 mg, t1/2, GM, Child–Pugh moderate hepatic impairment; single oral rucaparib 600 mg
Test Readout: half-life (h)
Reply numerically in h, unit not repeated.

Name the reported half-life value associated with the compound CNCc1ccc(-c2[nH]c3cc(F)cc4c3c2CCNC4=O)cc1 42.6

* * *

- Protocol Text: Urine pharmacokinetics (Ae0–24, CLR) after a single oral dose of rucaparib 600 mg in patients with advanced solid tumors
- Format: in vivo, human
- Condition Info: human, urine, po, 600 mg, Child–Pugh severe hepatic impairment; single oral rucaparib 600 mg; read-out: CLR, Mean (SD)
Test Readout: CL renal (mL/min)
Quick reminder: number only, in mL/min, skip the unit.

Consider the molecule CNCc1ccc(-c2[nH]c3cc(F)cc4c3c2CCNC4=O)cc1 and give its measured CL renal. 20.1

* * *

- Protocol Text: Plasma pharmacokinetics after a single oral dose of rucaparib 600 mg in patients with advanced solid tumors, by hepatic function group
- Condition Info: human, plasma, po, 600 mg, t1/2, Mean (SD), NCI-ODWG moderate hepatic impairment; single oral rucaparib 600 mg
Test Readout: half-life (min)
Number in min, nothing else.

Which value of half-life has been reported for CNCc1ccc(-c2[nH]c3cc(F)cc4c3c2CCNC4=O)cc1 in the records? 2800

* * *

- Protocol Text: Plasma pharmacokinetics after a single oral dose of rucaparib 600 mg in patients with advanced solid tumors, by hepatic function group
- Condition Info: human, plasma, po, 600 mg, Cmax, GM, Child–Pugh severe hepatic impairment; single oral rucaparib 600 mg
Test Readout: Cmax (ng/mL)
Report the value in ng/mL with no unit label.

For CNCc1ccc(-c2[nH]c3cc(F)cc4c3c2CCNC4=O)cc1 [rucaparib] , what is its reported Cmax? 692

* * *

- Protocol Text: Plasma pharmacokinetics after a single oral dose of rucaparib 600 mg in patients with advanced solid tumors, by hepatic function group
- Condition Info: human, plasma, po, 600 mg, Vz/F, Median (min–max), Child–Pugh moderate hepatic impairment; single oral rucaparib 600 mg
Test Readout: Vd/F (L)
The response must be a number in L with no trailing unit.

Field request: Vd/F | item: CNCc1ccc(-c2[nH]c3cc(F)cc4c3c2CCNC4=O)cc1 [rucaparib] 1280

* * *

- Protocol Text: Urine pharmacokinetics (Ae0–24, CLR) after a single oral dose of rucaparib 600 mg in patients with advanced solid tumors
- Assay type: in vivo, human
- Condition Info: human, urine, po, 600 mg, Child–Pugh mild hepatic impairment; single oral rucaparib 600 mg; read-out: CLR, GM
Test Readout: CL renal (mL/min)
A number alone suffices; assume mL/min.

// CL renal lookup, key: CNCc1ccc(-c2[nH]c3cc(F)cc4c3c2CCNC4=O)cc1 55.2
